Give In vivo calcemic activity relative to Calcitriol (1,25(OH)2D3) for every item shown.
- Tested on: rats
- Experimental Protocol: In vivo calcemic activity in rats (Binderup et al.)
- Parameters: species or system rat
- Conditions: Calcitriol = 100%

Challenge: Can you share its In vivo calcemic activity relative to Calcitriol (1,25(OH)2D3)? I mean this molecule: "C=C1/C(=C\C=C2/CCC[C@]3(C)[C@@H]([C@H](C)/C=C/C=C(CC)CC)CC[C@@H]23)C[C@@H](O)C[C@@H]1O"
Response given: 1%

Challenge: Look at this molecule and give its reported In vivo calcemic activity relative to Calcitriol (1,25(OH)2D3). C=C1/C(=C\C=C2/CCC[C@]3(C)[C@@H]([C@H](C)CCCC(C)(C)O)CC[C@@H]23)C[C@@H](O)C[C@@H]1O [Calcitriol, 1,25(OH)2D3, reference compound]
Response given: 100%

Challenge: In vivo calcemic activity relative to Calcitriol (1,25(OH)2D3) for C=C1C(=CC=C2CCCC3(C)C2CCC3C(C)C=CC=C(Br)Br)CC(O)CC1O (stereo not drawn) ?
Response given: <0.5% ^

Challenge: Report In vivo calcemic activity relative to Calcitriol (1,25(OH)2D3) for C=C1C(=CC=C2CCCC3(C)C2CCC3C(C)C=CC=C(C)C)CC(O)CC1O (stereo not drawn) [Compound 3] please.
Response given: 1%

Challenge: # query: In vivo calcemic activity relative to Calcitriol (1,25(OH)2D3) of entry C=C1C(=CC=C2CCCC3(C)C2CCC3C(C)C=CC=C(C)C)CC(O)CC1O (stereo not drawn) [Compound 1]
Response given: <10% ^

Challenge: // query In vivo calcemic activity relative to Calcitriol (1,25(OH)2D3) value for entry C=C1C(=CC=C2CCCC3(C)C2CCC3C(C)C=CC=C(C(F)(F)F)C(F)(F)F)CC(O)CC1O (stereo not drawn)
Response given: 8%
